# MEASUREMENT NOTES: Antiproliferative activity against mouse Pan02 cells at day 4 by MTS/PMS assay
# Format: functional, cell-based
# CONDITIONS USED: Pan02, 96 h
Record form. Attribute: IC50. Fill in for each entry.
Give bare numbers, in µM.

{"columns": ["COMPOUND", "IC50 (µM)"],
 "data": [
  ["COc1ccc(C(=O)N[C@H]2C/C=C\\[C@H](c3ccc(OC)cc3)N(Cc3ccc(F)cc3)C(=O)C2)cc1 (relative stereo)", 34.9]
]}

Which IC50 value belongs to COc1ccc([C@H]2/C=C\C[C@H](NC(=O)c3ccccc3)CC(=O)N2Cc2ccc(F)cc2)cc1 (relative stereo) ? 40.6
